These entries and their values trace back to patent US11292812B2.

// DSF ΔTm WT STING lookup, one value per entry
molecular target: WT STING (Homo sapiens, UniProt Q86WV6, H232R); experiment: Differential Scanning Fluorimetry with WT STING; type: binding; set-up: truncated human WT STING or AQ STING (amino acid residues 140-343); 8xHis (N, cleaved yes); SUMO (N, cleaved yes); made in house; host or cells: E. coli Rosetta-gami B (DE3); conditions: thermal shift, truncated human WT STING 0.1 mg/ml, 150 μM CDN
Sequence (Q86WV6 140-343 H232R): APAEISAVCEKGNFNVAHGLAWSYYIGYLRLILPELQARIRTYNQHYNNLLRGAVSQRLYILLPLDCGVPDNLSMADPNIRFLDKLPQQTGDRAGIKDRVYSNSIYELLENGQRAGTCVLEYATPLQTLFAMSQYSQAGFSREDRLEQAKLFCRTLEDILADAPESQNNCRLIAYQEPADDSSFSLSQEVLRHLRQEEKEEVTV
Give the value, in units of °C, as a plain number.

Check out these entries, answers already filled in.
MOLECULE	ASSAYED SYSTEM	DSF ΔTm WT STING / °C
Nc1ncnc2c1ncn2[C@@H]1O[C@@H]2COP(=O)(O)COC3C(O)[C@H](n4cnc5c(N)ncnc54)O[C@@H]3COP(=O)(O)COC2C1O (some centres unmarked) [Example 9]	WT STING (Homo sapiens, UniProt Q86WV6, H232R)	0.1
Nc1nc2c(ncn2[C@@H]2O[C@@H]3COP(=O)(O)O[C@H]4[C@@H](O)[C@H](n5cnc6c(=O)[nH]c(N)nc65)O[C@@H]4COP(=O)(O)O[C@H]3[C@H]2O)c(=O)[nH]1 [3′3′-c-di-GMP, reference compound]	WT STING (Homo sapiens, UniProt Q86WV6, H232R)	2.6
Nc1nc2c(ncn2[C@@H]2O[C@@H]3COP(=O)(O)O[C@@H]4[C@H](O)[C@@H](COP(=O)(O)O[C@@H]2[C@@H]3O)O[C@H]4n2cnc3c(N)ncnc32)c(=O)[nH]1 [2′2′-cGAMP, reference compound]	WT STING (Homo sapiens, UniProt Q86WV6, H232R)	11.5
Nc1ncnc2c1ncn2[C@@H]1O[C@@H]2COP(=O)(O)O[C@H]3[C@@H](O)[C@H](n4cnc5c(N)ncnc54)O[C@@H]3COP(=O)(O)O[C@H]2[C@H]1O [3′3′-c-di-AMP, reference compound]	WT STING (Homo sapiens, UniProt Q86WV6, H232R)	2.6

Q. Under WT STING (Homo sapiens, UniProt Q86WV6, H232R), report DSF ΔTm WT STING for Nc1ncnc2c1ncn2[C@@H]1O[C@@H]2COP(=O)(O)COC3C(O)[C@H](n4cnc5c(N)ncnc54)O[C@@H]3COP(=O)(O)COC2C1O (some centres unmarked) [Example 10]
A. 0.0

----------
// ΔTm at 150 µM lookup, one value per entry
target: AQ STING (G230A-R293Q) (Homo sapiens, UniProt Q86WV6, G230A/H232R/R293Q); construct: truncated human WT STING or AQ STING (amino acid residues 140-343); 8xHis (N, cleaved yes); SUMO (N, cleaved yes); made in house; host or cells: E. coli Rosetta-gami B (DE3); assay: Differential Scanning Fluorimetry with AQ STING; format: binding; settings: thermal shift, truncated human AQ STING 0.1 mg/ml, 150 μM CDN; read-out: DSF ΔTm AQ STING
Sequence (Q86WV6 140-343 G230A/H232R/R293Q): as the sequence (Q86WV6 140-343 H232R) above, with G91A, R154Q counted along it
Give the value, in units of °C, as a plain number.

MOLECULE	RESULT TYPE	ENDPOINT RESULT
Nc1nc2c(ncn2[C@@H]2O[C@@H]3COP(=O)(O)COC4C(O)[C@H](n5cnc6c(N)ncnc65)O[C@@H]4COP(=O)(O)OC3C2O)c(=O)[nH]1 (some centres unmarked) [Example 3]	ΔTm at 150 µM	3.1
Nc1ncnc2c1ncn2[C@@H]1O[C@@H]2COP(=O)(O)OC3C(F)[C@H](n4cnc5c(N)ncnc54)O[C@@H]3COP(=O)(O)COC2C1F (some centres unmarked) [Example 13]	ΔTm at 150 µM	16.1
Nc1nc2c(ncn2[C@@H]2O[C@@H]3COP(=O)(O)COC4C(O)[C@H](n5cnc6c(=O)[nH]c(N)nc65)O[C@@H]4COP(=O)(O)COC3C2O)c(=O)[nH]1 (some centres unmarked) [Example 6]	ΔTm at 150 µM	0

Q. Under AQ STING (G230A-R293Q) (Homo sapiens, UniProt Q86WV6, G230A/H232R/R293Q), report ΔTm at 150 µM for Nc1nc2c(ncn2[C@@H]2O[C@@H]3COP(=O)(O)COC4C(F)[C@H](n5cnc6c(N)ncnc65)O[C@@H]4COP(=O)(O)OC3C2F)c(=O)[nH]1 (some centres unmarked) [Example 8]
A. 18.6

Q. Under AQ STING (G230A-R293Q) (Homo sapiens, UniProt Q86WV6, G230A/H232R/R293Q), report ΔTm at 150 µM for Nc1nc2c(ncn2[C@@H]2O[C@@H]3COP(=O)(O)COC4C(F)[C@H](n5cnc6c(N)ncnc65)O[C@@H]4COP(=O)(O)OC3C2O)c(=O)[nH]1 (some centres unmarked) [Example 7]
A. 15

----------
target: WT STING (Homo sapiens, UniProt Q86WV6, H232R); assay: Digitonin assay using 293T wtSTING-FL reporter cells; details: 293T wtSTING-FL cells, ISRE firefly luciferase reporter, digitonin buffer 30 minutes, then 5 hours
Sequence (Q86WV6 whole entry H232R, the tested form may be a part): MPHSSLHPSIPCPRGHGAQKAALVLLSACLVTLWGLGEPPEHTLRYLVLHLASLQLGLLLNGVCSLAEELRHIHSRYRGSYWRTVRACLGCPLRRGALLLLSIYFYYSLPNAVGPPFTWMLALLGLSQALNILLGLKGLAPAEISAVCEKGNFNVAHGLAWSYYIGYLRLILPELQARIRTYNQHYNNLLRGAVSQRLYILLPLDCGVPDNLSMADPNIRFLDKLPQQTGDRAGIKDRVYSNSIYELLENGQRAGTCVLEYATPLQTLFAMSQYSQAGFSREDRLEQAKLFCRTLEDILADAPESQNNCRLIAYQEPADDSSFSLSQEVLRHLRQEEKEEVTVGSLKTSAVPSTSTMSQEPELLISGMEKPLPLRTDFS
RESULT TYPE: EC50 (nM)
Give the value, in units of nM, as a plain number.

MOLECULE	UNIT INFO	EC50
Nc1nc2c(ncn2[C@@H]2O[C@@H]3COP(=O)(O)OC4C(F)[C@H](n5cnc6c(=O)[nH]c(N)nc65)O[C@@H]4COP(=O)(O)COC3C2F)c(=O)[nH]1 (some centres unmarked) [Example 16]	nM	300
Nc1nc2c(ncn2[C@@H]2O[C@@H]3COP(=O)(O)COC4C(O)[C@H](n5cnc6c(N)ncnc65)O[C@@H]4COP(=O)(O)OC3C2F)c(=O)[nH]1 (some centres unmarked) [Example 5]	nM	100
Nc1nc2c(ncn2[C@@H]2O[C@@H]3COP(=O)(O)OC4C(F)[C@H](n5cnc6c(N)ncnc65)O[C@@H]4COP(=O)(O)COC3C2F)c(=O)[nH]1 (some centres unmarked) [Example 12]	nM	20

Q. Specify EC50 for Nc1nc2c(ncn2[C@@H]2O[C@@H]3COP(=O)(O)COC4C(F)[C@H](n5cnc6c(N)ncnc65)O[C@@H]4COP(=O)(O)OC3C2F)c(=O)[nH]1 (some centres unmarked) [Example 8] and stop.
A. 8

----------
biological target: WT STING (Homo sapiens, UniProt Q86WV6, H232R); experiment: Differential Scanning Fluorimetry with WT STING; assay type: binding; design: truncated human WT STING or AQ STING (amino acid residues 140-343); 8xHis (N, cleaved yes); SUMO (N, cleaved yes); made in house; host or cells: E. coli Rosetta-gami B (DE3); conditions: thermal shift, truncated human WT STING 0.1 mg/ml, 150 μM CDN; read-out: DSF ΔTm WT STING
RESULT TYPE: ΔTm at 150 µM (°C)
Give the value, in units of °C, as a plain number.

COMPOUND	RESULT TYPE	ENDPOINT RESULT
Nc1nc2c(ncn2[C@@H]2O[C@@H]3COP(=O)(O)COC4C(O)[C@H](n5cnc6c(=O)[nH]c(N)nc65)O[C@@H]4COP(=O)(O)COC3C2O)c(=O)[nH]1 (stereo partly drawn)	ΔTm at 150 µM	0.1
Nc1nc2c(ncn2[C@@H]2O[C@@H]3COP(=O)(O)OC4C(F)[C@H](n5cnc6c(N)ncnc65)O[C@@H]4COP(=O)(O)COC3C2F)c(=O)[nH]1 (stereo partly drawn)	ΔTm at 150 µM	9.3
Nc1nc2c(ncn2[C@@H]2O[C@@H]3COP(=O)(O)COC4C(F)[C@H](n5cnc6c(N)ncnc65)O[C@@H]4COP(=O)(O)OC3C2O)c(=O)[nH]1 (stereo partly drawn)	ΔTm at 150 µM	5.6

Q. Under WT STING (Homo sapiens, UniProt Q86WV6, H232R), report ΔTm at 150 µM for Nc1nc2c(ncn2[C@@H]2O[C@@H]3COP(=O)(O)COC4C(O)[C@H](n5cnc6c(N)ncnc65)O[C@@H]4COP(=O)(O)OC3C2F)c(=O)[nH]1 (stereo partly drawn)
A. 4.1

Q. Under WT STING (Homo sapiens, UniProt Q86WV6, H232R), report ΔTm at 150 µM for Nc1ncnc2c1ncn2[C@@H]1O[C@@H]2COP(=O)(O)OC3C(F)[C@H](n4cnc5c(N)ncnc54)O[C@@H]3COP(=O)(O)COC2C1F (stereo partly drawn)
A. 9.4

Q. Under WT STING (Homo sapiens, UniProt Q86WV6, H232R), report ΔTm at 150 µM for Nc1nc2c(ncn2[C@H]2CC3OCP(=O)(O)OC[C@H]4O[C@@H](n5cnc6c(N)ncnc65)C(F)C4OP(=O)(O)OC[C@H]3O2)c(=O)[nH]1 (stereo partly drawn)
A. 3.8

----------
Target: AQ STING (G230A-R293Q) (Homo sapiens, UniProt Q86WV6, G230A/H232R/R293Q)
Construct: truncated human WT STING or AQ STING (amino acid residues 140-343); 8xHis (N, cleaved yes); SUMO (N, cleaved yes); made in house; host or cells: E. coli Rosetta-gami B (DE3)
Test: Differential Scanning Fluorimetry with AQ STING
Assay type: binding
Details: thermal shift, truncated human AQ STING 0.1 mg/ml, 150 μM CDN
Excerpt: Purified PCR products were cleaved with restriction enzymes BamHI (cat. #R0136S, NEB, Ipswich, USA) and NotI (cat. #R0189S, NEB, Ipswich, USA) and cloned into the pSUMO vector linearized with the identical enzymes. […]
// DSF ΔTm AQ STING lookup, one value per entry
Give the value, in units of °C, as a plain number.

Check out these entries, answers already filled in.
COMPOUND	ASSAYED SYSTEM	DSF ΔTm AQ STING [°C]
Nc1ncnc2c1ncn2[C@@H]1O[C@@H]2COP(=O)(O)COC3C(O)[C@H](n4cnc5c(N)ncnc54)O[C@@H]3COP(=O)(O)COC2C1O (some centres unmarked) [Example 9]	AQ STING (G230A-R293Q) (Homo sapiens, UniProt Q86WV6, G230A/H232R/R293Q)	0.1
Nc1nc2c(ncn2[C@@H]2O[C@@H]3COP(=O)(O)O[C@@H]4[C@H](O)[C@@H](COP(=O)(O)O[C@@H]2[C@@H]3O)O[C@H]4n2cnc3c(N)ncnc32)c(=O)[nH]1 [2′2′-cGAMP, reference compound]	AQ STING (G230A-R293Q) (Homo sapiens, UniProt Q86WV6, G230A/H232R/R293Q)	19.4
Nc1ncnc2c1ncn2[C@@H]1O[C@@H]2COP(=O)(O)O[C@H]3[C@@H](O)[C@H](n4cnc5c(N)ncnc54)O[C@@H]3COP(=O)(O)O[C@H]2[C@H]1O [3′3′-c-di-AMP, reference compound]	AQ STING (G230A-R293Q) (Homo sapiens, UniProt Q86WV6, G230A/H232R/R293Q)	9.3
Nc1nc2c(ncn2[C@@H]2O[C@@H]3COP(=O)(O)O[C@H]4[C@@H](O)[C@H](n5cnc6c(=O)[nH]c(N)nc65)O[C@@H]4COP(=O)(O)O[C@H]3[C@H]2O)c(=O)[nH]1 [3′3′-c-di-GMP, reference compound]	AQ STING (G230A-R293Q) (Homo sapiens, UniProt Q86WV6, G230A/H232R/R293Q)	7.7

Query compound follows.
Q. Under AQ STING (G230A-R293Q) (Homo sapiens, UniProt Q86WV6, G230A/H232R/R293Q), report DSF ΔTm AQ STING for Nc1ncnc2c1ncn2[C@@H]1O[C@@H]2COP(=O)(O)COC3C(O)[C@H](n4cnc5c(N)ncnc54)O[C@@H]3COP(=O)(O)COC2C1O (some centres unmarked) [Example 10]
A. −0.2
